src = the supplement of paper PMC10567573

B1: SETD8 (parent)
chain: KKAQGKTQQNRKLTDFYPVRRSSR

# Variants of: B1
# Experiment notes: protein stability index of a GFP-peptide fusion (GPS, HEK-293T) (PSI 1-6); higher = more stable;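 further: lentivirally expressed fusions sorted by FACS into six bins by GFP to DsRed ratio, PSI derived from sequencing read proportions per bin multiplied by bin number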
# Condition summary: c terminus: a fixed tail appended
For each of the variants below, state its protein stability index.
Numbers only.

T7N = 3.33

Please go through the list and note protein stability index for each variant.
1. V19T
2. N10C
3. L13Q
4. T7E
5. G5S
6. D15T
7. L13C
8. R11I

**A:**
1: 2.72; 2: 3.63; 3: 3.79; 4: 2.9; 5: 2.62; 6: 3.5; 7: 4.07; 8: 2.45

**Q:** Specify protein stability index for `Y17T` and stop.
**A:** 2.06
